Every entry's value here was drawn from BigSolDB 2.1.

conditions: in DMSO, 283.15 K
reported property: solubility (mole fraction)

Fill blank: measured solubility (mole fraction) of the compound C=C1C[C@]23C[C@@]1(O)CC[C@H]2[C@@]12C=C[C@H](O)[C@@](C)(C(=O)O1)[C@H]2[C@@H]3C(=O)O is ____.
0.138

---

details: in acetonitrile, 318.15 K
reported property: solubility (mole fraction)

If you can, please state the reported solubility (mole fraction) value of C=C1C[C@]23C[C@@]1(O)CC[C@H]2[C@@]12C=C[C@H](O)[C@@](C)(C(=O)O1)[C@H]2[C@@H]3C(=O)O .
0.0481

---

settings: in acetone, 318.15 K
reported property: solubility (mole fraction)
The answer should be written as a number, with no unit following it.

Which value of solubility (mole fraction) has been reported for C=C1C[C@]23C[C@@]1(O)CC[C@H]2[C@@]12C=C[C@H](O)[C@@](C)(C(=O)O1)[C@H]2[C@@H]3C(=O)O in the records?
0.289
